Measurement description: qHTS assay for small molecules that induce genotoxicity in human embryonic kidney cells expressing luciferase-tagged ATAD5 (AID 651632); note: % is set by controls: 0 for no effect and ±100 for the full control effect; nearly all actives have a fitted effect of over 15% in size
Experimental setup: HEK293T ATAD5-luciferase induction, 16 h; series mostly up to 83.3 µM
From the text: U.S. Tox21 Program National Center for Advancing Translational Sciences [NCATS] NIH Chemical Genomics Center [NCGC] U.S. Environmental Protection Agency [EPA] National Institutes of Environmental Health Sciences [NIEHS] National Toxicology Program [NTP] U.S. Food and Drug Administration [FDA] Tox21 Assay Overview: As cancer cells divide rapidly and during every cell division they need to duplicate their genome by DNA replication. The failure to do so results in the cancer cell death. […]
Results filed as inconclusive are left out. Activity calls are given as the source filed them. Calls come from the whole dose curve; as a rule, active = well fitted activation curve with a large enough effect in the repeat runs; inconclusive = weak or mixed curves; inactive = no such curve, though single readings can be large or run the other way.
Readout kind: activation

[
  {
    "Compound": "CC1CCC(C(C)(C)S)C(=O)C1 (centres undefined)",
    "Value measured": "inactive"
  },
  {
    "Compound": "CCN(Cc1cccc(S(=O)(=O)O)c1)c1ccccc1",
    "Value measured": "inactive"
  },
  {
    "Compound": "CCCCCCCCCOCC1CO1 (centres undefined)",
    "Value measured": "inactive"
  },
  {
    "Compound": "C[CH2][Ge]([Cl])([CH2]C)[CH2]C",
    "Value measured": "inactive"
  },
  {
    "Compound": "CCOC(=O)CCc1ccccc1",
    "Value measured": "inactive"
  },
  {
    "Compound": "NS(=O)(=O)c1ccccc1OC(F)(F)F",
    "Value measured": "inactive"
  },
  {
    "Compound": "CCCO",
    "Value measured": "inactive"
  },
  {
    "Compound": "CNC(=O)C(c1ccccc1)c1ccccc1",
    "Value measured": "inactive"
  },
  {
    "Compound": "Cc1ccc2c(c1)c1c3n2CCNC3CCC1 (centres undefined)",
    "Value measured": "inactive"
  },
  {
    "Compound": "CCCOC(=O)CCCCC(=O)OCCC",
    "Value measured": "inactive"
  },
  {
    "Compound": "CCNC(=O)NCCCOc1cccc(CN2CCCCC2)c1",
    "Value measured": "inactive"
  },
  {
    "Compound": "Nc1cc(C(=O)O)ccc1Cl",
    "Value measured": "inactive"
  },
  {
    "Compound": "C=CCOCC(O)CCl (centres undefined)",
    "Value measured": "inactive"
  },
  {
    "Compound": "CC(=O)N(CC(O)CO)c1c(I)c(C(=O)NCC(O)CO)c(I)c(C(=O)NCC(O)CO)c1I (centres undefined)",
    "Value measured": "inactive"
  }
]

====

Measurement description: qHTS assay to identify small molecule agonists of H2AX - cell viability counter screen (AID 1224847);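 note: wild-type CHO-K1 cells; top concentration of the series differs between compounds; % is set by controls: 0 for no effect and ±100 for the full control effect; nearly all actives have a fitted effect of over 30% in size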
Experimental setup: CHO-K1 viability, CellTiter-Glo luminescence, 3 h; series mostly up to 154 µM
Records with an inconclusive call do not appear. Calls of active or inactive are those of the source. Calls follow the shape of the full dose curve.
Readout kind: activity change, negative = cytotoxicity

[
  {
    "Compound": "O=C1NC2NC(=O)NC2N1 (stereo unspecified)",
    "Value measured": "inactive"
  },
  {
    "Compound": "O=C(COCCOCCOCC(=O)Nc1c(I)cc(I)c(C(=O)O)c1I)Nc1c(I)cc(I)c(C(=O)O)c1I",
    "Value measured": "inactive"
  },
  {
    "Compound": "CC(C)COC(=O)CCCCC(=O)OCC(C)C",
    "Value measured": "inactive"
  },
  {
    "Compound": "CC(C)C(=O)c1ccccc1",
    "Value measured": "inactive"
  },
  {
    "Compound": "CCCCC(CC)CNC(=O)CC(C)OC(=O)CCC(=O)O (stereo unspecified)",
    "Value measured": "inactive"
  },
  {
    "Compound": "C=CCOC(=O)c1ccc(C(=O)OCC=C)c(C(=O)OCC=C)c1",
    "Value measured": "inactive"
  },
  {
    "Compound": "Nc1c(NC/C=C\\COc2cc(CN3CCCCC3)ccn2)c(=O)c1=O",
    "Value measured": "2.48% [at 31.6 µM] (inactive)"
  },
  {
    "Compound": "O=C(O)Cc1cccc(-c2cc(CCCCCCc3ccc(O[C@H]4O[C@H](CO)[C@@H](O)[C@H](O)[C@@H]4O)c(-c4cccc(CC(=O)O)c4)c3)ccc2O[C@H]2O[C@H](CO)[C@@H](O)[C@H](O)[C@@H]2O)c1",
    "Value measured": "-1.18% [at 0.582 µM] (inactive)"
  },
  {
    "Compound": "CC(C)C(=O)Nc1cccc(C(F)(F)F)c1",
    "Value measured": "inactive"
  },
  {
    "Compound": "Cc1cc(O)c2c(c1)C(=O)c1cccc(O)c1C2=O",
    "Value measured": "inactive"
  },
  {
    "Compound": "CCC(O)C(C)(C)C (stereo unspecified)",
    "Value measured": "inactive"
  }
]
